# procedure details: physchem
# setup conditions: buffer, pH 7.4
measured quantity: solubility (µg/mL)

mol_smiles=COc1cc(OC)cc(N(CCNC(C)C)c2ccc3ncc(-c4cnn(CCN(C)C)c4)c(=O)n3c2)c1 measured_quantity=solubility measurement_units=µg/mL operator=< numeric_result=10
mol_smiles=COc1cc(OC)cc(N(CCNC(C)C)c2ccc3ncc(-c4cnn(C5CN(C(C)=O)C5)c4)c(=O)n3c2)c1 measured_quantity=solubility measurement_units=µg/mL operator== numeric_result=59.1
